tested on: 156681-154-R-J1 tumor spheroid viability; assay: Anticancer human tumor 156681-154-R-J1 patient-derived melanoma cell line growth inhibition; details: curve of first compound; second compound 10 µM; spheroids with HUVEC and MSC
Measured IC50 by item
Just the number in nM, nothing appended.

| Compound | Target under test | Reported metric | Measurement units | Readout number |
| --- | --- | --- | --- | --- |
| CNCc1ccc(-c2cc(-c3nc(-c4ccc(S(=O)(=O)C(C)C)cc4)cnc3N)on2)cc1 + Cn1nnc2c(C(N)=O)ncn2c1=O | 156681-154-R-J1 tumor spheroid viability | IC50 | nM | 717 |

Let's switch to this compound now.
Provide one value: measured IC50 of Cc1sc2c(c1C)C(c1ccc(Cl)cc1)=NC(CC(=O)Nc1ccc(O)cc1)c1nnc(C)n1-2 (stereo not drawn) + Cn1nnc2c(C(N)=O)ncn2c1=O
128

----------
Measured viability, T/C by item
test system: 156681-154-R-J1 tumor spheroid viability; assay: Anticancer human tumor 156681-154-R-J1 cell line growth inhibition; settings: second compound 10 µM; first compound 0.1 µM; stronger effect = lower value; spheroids with HUVEC and MSC;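 further: spheroids exposed to compounds for 7 days before readout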;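 on viability, T/C: percent of vehicle control viability where 100% = DMSO-treated spheroids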

Previously resolved entries follow.
| Molecule | viability, T/C |
| --- | --- |
| Cc1cc(C)c(CNC(=O)c2cc(-c3ccc(CN4CCOCC4)cc3)cc3c2cnn3C2CCCC2)c(=O)[nH]1 + Cn1nnc2c(C(N)=O)ncn2c1=O | 73.3% |
| [2H]c1nc(C)nc([2H])c1-c1cc(NC[C@@H](C)c2cccc3c(C(=O)NC)ccnc23)ncn1 + Cn1nnc2c(C(N)=O)ncn2c1=O | 69.7% |
| CC1COCCN1c1cc(-c2ccnn2C)c2ccnc(-c3ccn[nH]3)c2n1 (stereo unspecified) + Cn1nnc2c(C(N)=O)ncn2c1=O | 39.3% |

// fetch viability, T/C; item: CC(C)n1c(=O)n(C)c2cnc3cc(F)c(-c4ccc(OCCCN5CCCCC5)nc4)cc3c21 + Cn1nnc2c(C(N)=O)ncn2c1=O ; system: 156681-154-R-J1 tumor spheroid viability
63.5%

// fetch viability, T/C; item: COc1ccc([C@@H](O)c2cc(-c3ncnc4cc(N5CCOCC5)ccc34)c(F)cc2Cl)nn1 + Cn1nnc2c(C(N)=O)ncn2c1=O ; system: 156681-154-R-J1 tumor spheroid viability
85.4%

// fetch viability, T/C; item: COc1cc(C)[nH]c(=O)c1CN1CCc2c(Cl)cc(C(OC)C3COC3)c(Cl)c2C1=O (stereo unspecified) + Cn1nnc2c(C(N)=O)ncn2c1=O ; system: 156681-154-R-J1 tumor spheroid viability
81%

----------
tested on: 156681-154-R-J1 tumor spheroid viability; assay: Anticancer human tumor 156681-154-R-J1 cell line growth inhibition; conditions: second compound 10 µM; first compound 3.16 µM; stronger effect = lower value; spheroids with HUVEC and MSC;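 further: spheroids exposed to compounds for 7 days before readout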;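 on viability, T/C: percent of vehicle control viability where 100% = DMSO-treated spheroids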
Measured viability, T/C by item
Just the number in %, nothing appended.

| Compound | Measurement units | viability, T/C |
| --- | --- | --- |
| CC(C)n1c(=O)n(C)c2cnc3cc(F)c(-c4ccc(OCCCN5CCCCC5)nc4)cc3c21 + Cn1nnc2c(C(N)=O)ncn2c1=O | % | 75.5 |
| COc1ccc([C@@H](O)c2cc(-c3ncnc4cc(N5CCOCC5)ccc34)c(F)cc2Cl)nn1 + Cn1nnc2c(C(N)=O)ncn2c1=O | % | 70.7 |
| COc1cc(C)[nH]c(=O)c1CN1CCc2c(Cl)cc(C(OC)C3COC3)c(Cl)c2C1=O (stereo unspecified) + Cn1nnc2c(C(N)=O)ncn2c1=O | % | 98.7 |

Provide one value: measured viability, T/C of CC1COCCN1c1cc(-c2ccnn2C)c2ccnc(-c3ccn[nH]3)c2n1 (stereo unspecified) + Cn1nnc2c(C(N)=O)ncn2c1=O
21.9

Provide one value: measured viability, T/C of [2H]c1nc(C)nc([2H])c1-c1cc(NC[C@@H](C)c2cccc3c(C(=O)NC)ccnc23)ncn1 + Cn1nnc2c(C(N)=O)ncn2c1=O
73.3

Provide one value: measured viability, T/C of Cc1cc(C)c(CNC(=O)c2cc(-c3ccc(CN4CCOCC4)cc3)cc3c2cnn3C2CCCC2)c(=O)[nH]1 + Cn1nnc2c(C(N)=O)ncn2c1=O
69.2
